B1: 2M8U (parent)
chain: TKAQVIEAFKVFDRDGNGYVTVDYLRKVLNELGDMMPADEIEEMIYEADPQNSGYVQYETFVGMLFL

Variants of: B1
Test: folding stability dG (cDNA display proteolysis); higher = more stable
Details: PBS, room temperature
measure: folding stability dG (kcal/mol)

residue.string	measure	experimental.value
TKAQVIEAFKVFDRDGNGYVTVDYLRKVLNELGDMMPADEIEEMIYEAWPQNSGYVQYETFVGMLFL [D49W]	folding stability dG	2.66
TKAQVIEAFKVFDRDGNGYVTVDYLRKVLNELGDMMPADEWEEMIYEADPQNSGYVQYETFVGMLFL [I41W]	folding stability dG	3.72
TKAQVIEAFKVFDRDGNGYVTVEYLRKVLNELGDMMPADEIEEMIYEADPQNSGYVQYETFVGMLFL [D23E]	folding stability dG	3.74
TKAQVKEAFKVFDRDGNGYVTVDYLRKVLNELGDMMPADEIEEMIYEADPQNSGYVQYETFVGMLFL [I6K]	folding stability dG	2.38
TKAQVIEAFKVFDRDGNGYVTVDYLRKVLLELGDMMPADEIEEMIYEADPQNSGYVQYETFVGMLFL [N30L]	folding stability dG	3.64
TKAQVIEAFKVFDRDGNGYVTVDYLRKVLNELGDMMPADEIEEMIYEADPQNSGYVQYETFVGMLFF [L67F]	folding stability dG	3.22
TKAQVIEAFKVFDRDGTGYVTVDYLRKVLNELGDMMPADEIEEMIYEADPQNSGYVQYETFVGMLFL [N17T]	folding stability dG	3.95
TKAQVIEAFKVFDRDGNGYVTVDYLRKVLNELGDMMPADEIEEMIYEADPQNSGYVQYETFVGMLFE [L67E]	folding stability dG	3.96
TKAQVIEAFKVFDRDGNGYVTVDYLRKVLIELGDMMPADEIEEMIYEADPQNSGYVQYETFVGMLFL [N30I]	folding stability dG	3.36
TKAQVIEAFKVFDRDGNGYVTVDYLRKVLEELGDMMPADEIEEMIYEADPQNSGYVQYETFVGMLFL [N30E]	folding stability dG	3.4
TKAQVIEAFKVFDRDGNGYVTVDYLRKVLNELGDMMPADEIEEMIYEADPQNSGYRQYETFVGMLFL [V56R]	folding stability dG	2.24
